experiment: Total clearance in monkey at 10 mg/kg, iv; format: ADME, organism-based, Macaca mulatta; design: dose 10 mg/kg, route intravenous; details: rhesus monkey, in vivo
ENDPOINT: clearance (mL/min/kg)

chem_smiles=Cc1cc2cc(N=C(NC(=O)c3ccc(C(=O)N(C)C)nc3)N[C@H]3CCCCN(CC(=O)N4CCCC4)C3=O)ccc2o1 unit_string=mL/min/kg reported_measurement=11

###

target: Cytochrome P450 2C9 (Homo sapiens, UniProt P11712); experiment: Inhibition of CYP2C9 by HHA assay; format: ADME
Sequence (P11712 whole entry): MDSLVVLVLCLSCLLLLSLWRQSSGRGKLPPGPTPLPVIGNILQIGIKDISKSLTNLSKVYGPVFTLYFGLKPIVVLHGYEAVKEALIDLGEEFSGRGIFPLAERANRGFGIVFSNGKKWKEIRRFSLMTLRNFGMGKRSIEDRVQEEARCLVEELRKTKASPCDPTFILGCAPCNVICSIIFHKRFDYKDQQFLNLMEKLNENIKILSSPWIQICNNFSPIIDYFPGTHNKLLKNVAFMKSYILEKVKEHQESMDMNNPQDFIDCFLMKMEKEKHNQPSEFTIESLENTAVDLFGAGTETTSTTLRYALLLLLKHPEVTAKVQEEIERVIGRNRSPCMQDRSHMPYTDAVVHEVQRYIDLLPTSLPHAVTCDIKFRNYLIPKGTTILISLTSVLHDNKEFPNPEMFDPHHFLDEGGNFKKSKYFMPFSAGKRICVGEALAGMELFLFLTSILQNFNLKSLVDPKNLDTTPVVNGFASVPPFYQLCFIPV
ENDPOINT: IC50

chem_smiles=Cc1cc2cc(N=C(NC(=O)c3ccc(C(=O)N(C)C)nc3)N[C@H]3CCCCN(CC(=O)N4CCCC4)C3=O)ccc2o1 endpoint=IC50 reported_measurement="> 200 µM"

###

biological target: Cytochrome P450 2C19 (Homo sapiens, UniProt P33261); assay: Inhibition of CYP2C19; assay type: ADME
Sequence (P33261 whole entry): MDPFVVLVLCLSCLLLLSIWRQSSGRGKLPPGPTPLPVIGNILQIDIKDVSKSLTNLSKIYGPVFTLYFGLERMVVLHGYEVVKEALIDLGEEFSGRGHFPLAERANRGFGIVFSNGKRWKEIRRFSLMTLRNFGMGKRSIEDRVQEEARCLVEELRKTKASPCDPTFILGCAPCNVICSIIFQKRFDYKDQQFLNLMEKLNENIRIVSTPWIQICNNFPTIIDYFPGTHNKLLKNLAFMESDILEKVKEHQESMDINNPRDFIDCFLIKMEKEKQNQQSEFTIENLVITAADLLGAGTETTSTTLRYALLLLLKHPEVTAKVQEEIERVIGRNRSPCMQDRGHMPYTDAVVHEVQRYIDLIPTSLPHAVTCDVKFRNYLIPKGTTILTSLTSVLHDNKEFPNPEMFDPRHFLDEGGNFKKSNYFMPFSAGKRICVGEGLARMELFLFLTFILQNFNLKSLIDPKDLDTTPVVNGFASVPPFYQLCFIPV
pIC50: −log10 of the molar value.
Measured pIC50 accompanies every entry in the list below.
ENDPOINT: pIC50

chem_smiles=CNC(=O)c1ccc(C(=O)/N=C(\Nc2ccc3oc(C)cc3c2)N[C@H]2CCCCN(CC(=O)N3CCCC3)C2=O)cn1 endpoint=pIC50 reported_measurement=4.92
chem_smiles=Cc1cc2cc(N/C(=N\C(=O)c3ccc(C(N)=O)nc3)N[C@H]3CCCCN(CC(=O)N4CCCC4)C3=O)ccc2o1 endpoint=pIC50 reported_measurement=4.89
chem_smiles=Cc1cc2cc(N/C(=N\C(=O)c3cncc(C(N)=O)c3)N[C@H]3CCCCN(CC(=O)N4CCCC4)C3=O)ccc2o1 endpoint=pIC50 reported_measurement=4.43
chem_smiles=Cc1cc2cc(N/C(=N\C(=O)c3ccc(C(=O)O)nc3)N[C@H]3CCCCN(CC(=O)N4CCCC4)C3=O)ccc2o1 endpoint=pIC50 reported_measurement=4.33
chem_smiles=Cc1cc2cc(/N=C(/NC(=O)c3cccnc3)N[C@H]3CCCCN(CC(=O)N4CCCC4)C3=O)ccc2o1 endpoint=pIC50 reported_measurement=5.10
chem_smiles=Cc1cc2cc(N/C(=N\C(=O)c3ccc(Cl)nc3)N[C@H]3CCCCN(CC(=O)N4CCCC4)C3=O)ccc2o1 endpoint=pIC50 reported_measurement=4.66
chem_smiles=Cc1ccc(C(=O)/N=C(\Nc2ccc3oc(C)cc3c2)N[C@H]2CCCCN(CC(=O)N3CCCC3)C2=O)cn1 endpoint=pIC50 reported_measurement=4.57
chem_smiles=Cc1cc2cc(N/C(=N\C(=O)c3ccc[n+]([O-])c3)N[C@H]3CCCCN(CC(=O)N4CCCC4)C3=O)ccc2o1 endpoint=pIC50 reported_measurement=3.89

###

test: Total clearance in rat at 10 mg/kg, iv; assay type: ADME, organism-based; parameters: dose 10 mg/kg, route intravenous; settings: in vivo
ENDPOINT: clearance (mL/min/kg)

chem_smiles=Cc1cc2cc(N=C(NC(=O)c3ccc(C(=O)N(C)C)nc3)N[C@H]3CCCCN(CC(=O)N4CCCC4)C3=O)ccc2o1 endpoint=clearance reported_measurement=27

###

assay: Oral bioavailability in rat at 10 mg/kg; assay type: ADME, organism-based; details: in vivo
ENDPOINT: bioavailability (%)

chem_smiles=Cc1cc2cc(N=C(NC(=O)c3ccc(C(=O)N(C)C)nc3)N[C@H]3CCCCN(CC(=O)N4CCCC4)C3=O)ccc2o1 reported_measurement=55

###

assay: Tmax in dog at 2 mg/kg, po; format: ADME, organism-based, Canis lupus familiaris; design: dose 2 mg/kg, route oral; conditions: in vivo
ENDPOINT: Tmax (h)

chem_smiles=Cc1cc2cc(N=C(NC(=O)c3ccc(C(=O)N(C)C)nc3)N[C@H]3CCCCN(CC(=O)N4CCCC4)C3=O)ccc2o1 endpoint=Tmax unit_string=h reported_measurement=1.3

###

molecular target: Cytochrome P450 3A4 (Homo sapiens, UniProt P08684); assay: Inhibition of CYP3A4 using BFC as a substrate; format: ADME
Sequence (P08684 whole entry): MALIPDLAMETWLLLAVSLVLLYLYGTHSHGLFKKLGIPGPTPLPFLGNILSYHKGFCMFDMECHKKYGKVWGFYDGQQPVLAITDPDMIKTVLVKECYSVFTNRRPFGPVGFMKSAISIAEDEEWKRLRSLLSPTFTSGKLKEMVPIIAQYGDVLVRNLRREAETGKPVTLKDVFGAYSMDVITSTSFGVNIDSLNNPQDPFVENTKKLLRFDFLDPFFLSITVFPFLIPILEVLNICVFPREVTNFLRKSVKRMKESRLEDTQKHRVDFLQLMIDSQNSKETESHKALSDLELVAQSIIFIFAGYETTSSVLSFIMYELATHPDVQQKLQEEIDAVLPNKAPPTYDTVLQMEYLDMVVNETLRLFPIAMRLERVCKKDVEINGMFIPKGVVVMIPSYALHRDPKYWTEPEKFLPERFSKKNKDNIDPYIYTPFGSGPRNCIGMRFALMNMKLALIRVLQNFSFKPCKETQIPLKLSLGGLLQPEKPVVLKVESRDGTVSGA
The following molecules are shown together with reported IC50 values.
ENDPOINT: IC50 (µM)

chem_smiles=Cc1cc2cc(N=C(NC(=O)c3ccc(C(=O)N(C)C)nc3)N[C@H]3CCCCN(CC(=O)N4CCCC4)C3=O)ccc2o1 endpoint=IC50 reported_measurement=39
chem_smiles=Cc1cc2cc(N/C(=N\C(=O)c3ccc(C(N)=O)nc3)N[C@H]3CCCCN(CC(=O)N4CCCC4)C3=O)ccc2o1 endpoint=IC50 reported_measurement=18
chem_smiles=Cc1cc2cc(N/C(=N\C(=O)c3ccc(C(=O)O)nc3)N[C@H]3CCCCN(CC(=O)N4CCCC4)C3=O)ccc2o1 endpoint=IC50 reported_measurement=87
chem_smiles=CNC(=O)c1ccc(C(=O)/N=C(\Nc2ccc3oc(C)cc3c2)N[C@H]2CCCCN(CC(=O)N3CCCC3)C2=O)cn1 endpoint=IC50 reported_measurement=18

###

molecular target: Cytochrome P450 3A4 (Homo sapiens, UniProt P08684); assay: Inhibition of CYP3A4 using BFC as a substrate; type: ADME
pIC50: −log10 of the molar value.
ENDPOINT: pIC50

chem_smiles=Cc1ccc(C(=O)/N=C(\Nc2ccc3oc(C)cc3c2)N[C@H]2CCCCN(CC(=O)N3CCCC3)C2=O)cn1 reported_measurement=5.15
chem_smiles=Cc1cc2cc(/N=C(/NC(=O)c3cccnc3)N[C@H]3CCCCN(CC(=O)N4CCCC4)C3=O)ccc2o1 reported_measurement=6.52
chem_smiles=Cc1cc2cc(N/C(=N\C(=O)c3ccc[n+]([O-])c3)N[C@H]3CCCCN(CC(=O)N4CCCC4)C3=O)ccc2o1 reported_measurement=6.05
chem_smiles=Cc1cc2cc(N/C(=N\C(=O)c3cncc(C(N)=O)c3)N[C@H]3CCCCN(CC(=O)N4CCCC4)C3=O)ccc2o1 reported_measurement=6.40
chem_smiles=Cc1cc2cc(N/C(=N\C(=O)c3ccc(Cl)nc3)N[C@H]3CCCCN(CC(=O)N4CCCC4)C3=O)ccc2o1 reported_measurement=5.10

###

biological target: UniProt:P11712; assay: Inhibition of CYP2C9; assay type: ADME
Below, each entry is listed with its recorded IC50.
ENDPOINT: IC50 (µM)

chem_smiles=Cc1cc2cc(N/C(=N\C(=O)c3ccc(C(N)=O)nc3)N[C@H]3CCCCN(CC(=O)N4CCCC4)C3=O)ccc2o1 unit_string=µM reported_measurement=22
chem_smiles=Cc1ccc(C(=O)/N=C(\Nc2ccc3oc(C)cc3c2)N[C@H]2CCCCN(CC(=O)N3CCCC3)C2=O)cn1 unit_string=µM reported_measurement=9
chem_smiles=Cc1cc2cc(N/C(=N\C(=O)c3ccc(Cl)nc3)N[C@H]3CCCCN(CC(=O)N4CCCC4)C3=O)ccc2o1 unit_string=µM reported_measurement=12
chem_smiles=Cc1cc2cc(/N=C(/NC(=O)c3cccnc3)N[C@H]3CCCCN(CC(=O)N4CCCC4)C3=O)ccc2o1 unit_string=µM reported_measurement=10
chem_smiles=Cc1cc2cc(N/C(=N\C(=O)c3cncc(C(N)=O)c3)N[C@H]3CCCCN(CC(=O)N4CCCC4)C3=O)ccc2o1 unit_string=µM reported_measurement=10
chem_smiles=Cc1cc2cc(N/C(=N\C(=O)c3ccc[n+]([O-])c3)N[C@H]3CCCCN(CC(=O)N4CCCC4)C3=O)ccc2o1 unit_string=µM reported_measurement=122
chem_smiles=Cc1cc2cc(N/C(=N\C(=O)c3ccc(C(=O)O)nc3)N[C@H]3CCCCN(CC(=O)N4CCCC4)C3=O)ccc2o1 unit_string=µM reported_measurement=122
chem_smiles=CNC(=O)c1ccc(C(=O)/N=C(\Nc2ccc3oc(C)cc3c2)N[C@H]2CCCCN(CC(=O)N3CCCC3)C2=O)cn1 unit_string=µM reported_measurement=24

###

test: Volume of distribution in steady state in monkey at 10 mg/kg, iv; assay type: ADME, organism-based, Macaca mulatta; design: dose 10 mg/kg, route intravenous; conditions: rhesus monkey, in vivo, read-out: Vdss
ENDPOINT: Vd

chem_smiles=Cc1cc2cc(N=C(NC(=O)c3ccc(C(=O)N(C)C)nc3)N[C@H]3CCCCN(CC(=O)N4CCCC4)C3=O)ccc2o1 endpoint=Vd reported_measurement="2.3 L/kg"
